Values from patent US20260256797A1

# ASSAY SYSTEM: Aβ1-42 (Homo sapiens)
# Construct: dissolving Aβ1-42 or Tau-RD3 (Tau repeat domain 3) monomer in DMSO
# Sequence (P05067 672-713 limits assumed): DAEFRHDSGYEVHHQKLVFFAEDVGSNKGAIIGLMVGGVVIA
# EXPERIMENTAL PROTOCOL: Amyloid-beta (Aβ) disaggregation test by thioflavin-T assay
# Assay type: biochemical
# CONDITIONS: 50 μM Aβ1-42 aggregated 24 hours, then compound 0-500 μM for 48 hours at 37° C.
OBSERVED PROPERTY: EC50 (µM)

// query Provide one value: measured EC50 of O=C1C(c2cccnc2)=C(c2ccoc2)c2ccc(OCCOc3ccc(Cl)c(Cl)c3)cc21
// result 1.4

P. Cc1scnc1C1=C(c2cccs2)C(=O)c2cc(OCCOc3ccccc3)ccc21
Q. COc1ccc(OCCOc2ccc3c(c2)C(=O)C(c2cccnc2)=C3c2ccoc2)cc1OC
// query For the two items P and Q , which reports the higher EC50 value? State your choice using its label.
// result P
(P: 12.8 µM, Q: 1.8 µM)

I. Cc1ncsc1C1=C(c2cccnc2)C(=O)c2cc(OCCOc3ccccc3)ccc21
II. COc1ccc(OCCOc2ccc3c(c2)C(=O)C(c2cccnc2)=C3c2ccoc2)cc1
// query Dear colleague, could you let me know whether I or II has the lower recorded EC50? Thanks. # reply format: chosen label
// result I
(I: 5.7 µM, II: 31.2 µM)

P. COc1ccc(COCOc2ccc3c(c2)C(=O)C(c2cccnc2)=C3c2ccoc2)cc1
Q. Cc1ncsc1C1=C(c2ccccc2CC#N)C(=O)c2cc(OCCCc3ccccc3)ccc21
// query Rank P against Q by their EC50 values and give the higher one. Answer with the label corresponding to your selection.
// result Q

I. O=C1C(c2cccnc2)=C(c2ccoc2)c2ccc(OCCCc3ccccc3)cc21
II. O=C1C(c2cccnc2)=C(c2ccoc2)c2ccc(OCCOc3ccc4c(c3)OCO4)cc21
// query Of I and II , which one carries the higher reported EC50? Use the label to indicate which entry you chose.
// result I
